Consider the following variants; for each one, report its protein stability index.
B1: PHTF1 (parent)
chain: SRHLNSQVKKTTTRWCHIVRDSDS

variants of: B1; test: protein stability index of a GFP-peptide fusion (GPS, HEK-293T) (PSI 1-6); higher = more stable; settings: c terminus: a fixed tail appended;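 note: lentivirally expressed fusions sorted by FACS into six bins by GFP to DsRed ratio, PSI derived from sequencing read proportions per bin multiplied by bin number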
Numbers only.

Residue change: K10T
Reading: 1.98

Give protein stability index for each listed item.
1. S24R
2. Q7Y

1.37
1.68

This collection of values is drawn from the supplement of paper PMC10567573.
